Recorded values, source PubChem BioAssay AID2685.

- Experiment description: qHTS Assay for Lipid Storage Modulators in Drosophila S3 Cells;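 as to cell number change: cells counted by Cell Tracker Red CMTPX staining in the red channel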
- Test parameters: BODIPY lipid droplet fluorescence, 18-24 h, cells fed with added oleic acid; measured here: cell count max response
- Text: NIH Molecular Libraries Probe Production Centers Network [MLPCN] NIH Chemical Genomics Center [NCGC] […] Triacsin C (Sigma-Aldrich T-4540), an inhibitor of long-chain fatty acyl CoA synthetase that blocks synthesis of triglycerides, was used as a positive control for lipid under-storage. […] Fluorescence was detected by excitation of the fluorophores with a 488-nm laser on an Acumen Explorer (TTP Lab Tech). […] Cells were detected using channel 3 (575-640 nm) with 5-um width and 100-um depth filters. […]
The campaign covered roughly 320,000 compounds. About 2,100 (0.66%) were called active. Inconclusive results (about 53%) are left out. The entries come from a sample that favours actives as a whole.
Recorded metric: cell number change (%)
Answer in %, number only, no unit symbol.

Query :: Look up cell number change: NS(=O)(=O)c1ccc(NC(=S)NC(=O)c2cccs2)cc1
Result :: -5.36

Query :: Look up cell number change: CCN1CCN(C(CNS(=O)(=O)c2ccc(Br)cc2)c2cccnc2)CC1 (stereo unspecified)
Result :: -9.83

Query :: Look up cell number change: CCC(=O)Nc1ccc(NC(=O)CSc2nc3cc4c(cc3cc2C)CCC4)cc1
Result :: 0.207

Query :: Look up cell number change: CCN(CC)S(=O)(=O)c1c(OC)cc(C)c(Cl)c1C
Result :: 8.74

Query :: Look up cell number change: O=c1[nH]c2ccccc2nc1C(F)(F)F
Result :: 17.1

Query :: Look up cell number change: O=C1CCCC2(O)C1C(c1cccc(Br)c1)NC(=O)N2Cc1ccccc1 (stereo unspecified)
Result :: 1.15

###

- Experiment description: qHTS Assay for Lipid Storage Modulators in Drosophila S3 Cells;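 as to cell number change: cells counted by Cell Tracker Red CMTPX staining in the red channel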
- Test parameters: BODIPY lipid droplet fluorescence, 18-24 h, cells fed with added oleic acid; measured here: cell count max response
Hit rate of the full screen: of about 320,000 compounds, about 2,100 (0.66%) were called active. Another 53% or so got no clear call; they are omitted. The sample as a whole holds a higher share of actives than the screen did.
For each record, write down the corresponding cell number change.
Answer in %, number only, no unit symbol.

Query :: Look up cell number change: O=C(Oc1ccccc1)c1c(Cl)cccc1P(=O)(O)O
Result :: 3.12

Query :: Look up cell number change: COc1cccc(CNS(=O)(=O)c2ccc3c(c2)CC(C)N3C(=O)C2CC2)c1 (stereo not drawn)
Result :: -26.9

Query :: Look up cell number change: O=C(O)c1c(Cl)cccc1Cl
Result :: 4.08

Query :: Look up cell number change: COc1cc(S(=O)(=O)N2CCOCC2)ccc1NC(=O)COC(=O)c1ccccn1
Result :: 9.96

Query :: Look up cell number change: CC(C)OP(=O)(OC(C)C)C(Nc1ccccc1)c1ccc2c(c1)OCO2 (stereo not drawn)
Result :: -17

Query :: Look up cell number change: COc1ccccc1CNC(=O)COC(=O)c1ccc(C)s1
Result :: 8.78

Query :: Look up cell number change: Cc1ccc2c(c1)[C@@H]1CN(C)CC[C@@H]1N2S(=O)(=O)c1ccc([N+](=O)[O-])cc1
Result :: -4.89

Query :: Look up cell number change: CCN(CC)C(=O)c1[nH]cnc1C(=O)N[C@@H](CC(C)C)C(=O)OCc1ccccc1
Result :: -10.8

Query :: Look up cell number change: O=C(Oc1ccc(/C=N/O)cc1)c1ccccc1Cl
Result :: -11.5

Query :: Look up cell number change: CCOc1ccc(C(=O)COC(=O)c2nn(CC)c(=O)c3ccccc23)cc1
Result :: 18.9

Query :: Look up cell number change: Cc1cc(C)n2c(SCCO)nnc2n1
Result :: 8.77

Query :: Look up cell number change: COCCCNC(NC(=O)c1ccc(Cl)cc1)C(Cl)(Cl)Cl (stereo not drawn)
Result :: 18.7

Query :: Look up cell number change: O=C(NC(=O)c1c(Cl)cccc1Cl)Nc1ccc(Oc2cccnc2)nc1
Result :: 1.56

Query :: Look up cell number change: COC(=O)CC1NCCNC1=O (stereo not drawn)
Result :: -8.44

Query :: Look up cell number change: Cc1ccc2c(c1)C1CN(C)CCC1N2S(=O)(=O)c1cccc(F)c1 (stereo not drawn)
Result :: -8.15

Query :: Look up cell number change: COc1ccccc1CNS(=O)(=O)c1ccc2c(c1)CC(C)N2C(=O)C1CCC1 (stereo not drawn)
Result :: -14.7

Query :: Look up cell number change: COc1ccccc1CNC(=O)CCS(=O)(=O)c1ccc2c(c1)CC(C)N2C(=O)C1CC1 (stereo not drawn)
Result :: -19.6

Query :: Look up cell number change: CCCCNC(=O)CC1NCCNC1=O (stereo not drawn)
Result :: -9.85

Query :: Look up cell number change: COc1ccccc1NC(=O)CCNS(=O)(=O)c1ccc2c(c1)CC(C)N2C(=O)C1CC1 (stereo not drawn)
Result :: 3.62

Query :: Look up cell number change: Cc1ccc2c(c1)C1CN(C)CCC1N2S(=O)(=O)c1ccc(C#N)cc1 (stereo not drawn)
Result :: -11.9

Query :: Look up cell number change: COc1ccccc1CNC(=O)c1ccc(C)s1
Result :: 2.24

Query :: Look up cell number change: CC1Cc2cc(S(=O)(=O)NCc3ccccc3)ccc2N1C(=O)C1CC1 (stereo not drawn)
Result :: -26.2

Query :: Look up cell number change: CC(C)=C1C2CCC1C(C(=O)NCc1ccccc1)C2C(=O)O (stereo not drawn)
Result :: -4.67

###

- Experiment description: qHTS Assay for Lipid Storage Modulators in Drosophila S3 Cells; also: potency is read from the fitted curve at half-maximal effect
- Test parameters: BODIPY lipid droplet fluorescence, 18-24 h, cells fed with added oleic acid; series mostly up to 46.1 µM
In all, about 320,000 compounds went through this assay and about 2,100 (0.66%) were called active. Not shown: some 53% with an inconclusive outcome. The list comes from a sample in which actives are over-represented; it also holds close analogues and randomly drawn compounds.
Recorded metric: Potency

Molecule: Cc1ccc(NC(=O)C(C)Sc2nnc(C)n2CC2CCCO2)cc1 (stereo not given)
Observed measurement: inactive

Molecule: Cc1ccccc1NC(=O)C(C)Sc1nnc(-c2ccncc2)n1CC1CCCO1 (stereo not given)
Observed measurement: 2.31 µM (active)

Molecule: O=C(Cc1ccccc1[N+](=O)[O-])NCCc1ccc(F)cc1
Observed measurement: inactive

Molecule: CC(=O)Nc1ccc(S(=O)(=O)NC(C)c2nc(-c3ccccc3)no2)cc1 (stereo not given)
Observed measurement: inactive

Molecule: O=C(CSc1nnc(Cn2c(=O)sc3ccccc32)n1-c1ccccc1)N1CCCC1
Observed measurement: inactive

Switching to the query record.
Query :: Look up Potency: CN(C)CCN(Cc1ccccc1)S(=O)(=O)c1ccc(-c2ccc(=O)[nH]n2)s1
Result :: inactive

###

- Experiment description: qHTS Assay for Lipid Storage Modulators in Drosophila S3 Cells;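 as to cell number change: cells counted by Cell Tracker Red CMTPX staining in the red channel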
- Test parameters: BODIPY lipid droplet fluorescence, 18-24 h, cells fed with added oleic acid; measured here: cell count max response
In all, about 320,000 compounds went through this assay and about 2,100 (0.66%) were called active. Inconclusive results (about 53%) are left out. The sample holds actives, similar compounds and a random draw of the others, so the mix is not that of the screen.
For each record, write down the corresponding cell number change.
Answer in %, number only, no unit symbol.

Query :: Look up cell number change: Cc1cc(C)cc(-n2ccn(CC(=O)NCCc3ccccc3)c(=O)c2=O)c1
Result :: -3.95

Query :: Look up cell number change: O=C1c2ccccc2-c2c1cccc2C(=O)N(CCO)CCO
Result :: -9.84

Query :: Look up cell number change: O=C(c1ccc(N2C(=O)C3CC=C(Cl)CC3C2=O)cc1)N1CCOCC1 (stereo not drawn)
Result :: 30

Query :: Look up cell number change: Cn1nnnc1SCC(=O)Nc1ccccc1Br
Result :: -3.35

Query :: Look up cell number change: Cc1cc(C)cc(NC(=O)CN2CCN(c3ccccn3)CC2)c1
Result :: -2.33

Query :: Look up cell number change: CCCC(C(=O)NC1CCCC1)N(C(=O)c1snc(C(N)=O)c1N)c1ccc(F)cc1 (stereo not drawn)
Result :: -10.5

Query :: Look up cell number change: CCn1c(=O)c(C(=O)Nc2ccccc2C)c(O)c2ccccc21
Result :: 4.59

Query :: Look up cell number change: NC(=O)c1nsc(C(=O)N(CC(=O)NC2CCCCC2)c2ccc(Cl)cc2)c1N
Result :: -2.56

Query :: Look up cell number change: C=CCn1c(=O)c(C(=O)Nc2ccccc2O)c(O)c2ccccc21
Result :: 3.13

Query :: Look up cell number change: NC(=O)c1nsc(C(=O)N(CC(=O)NC2CCCC2)c2cnc3ccccc3c2)c1N
Result :: -18

Query :: Look up cell number change: O=C(CN1CCN(c2ccccn2)CC1)Nc1ccccc1
Result :: 6.43

Query :: Look up cell number change: O=C(CCCc1ccccc1)c1ccc2c(c1)OCCO2
Result :: -0.322

Query :: Look up cell number change: O=C(NCCOc1ccccc1)c1cc([N+](=O)[O-])ccc1N1CCOCC1
Result :: -1.71

Query :: Look up cell number change: C=CCn1c(=O)c(C(=O)Nc2ccccc2C)c(O)c2ccccc21
Result :: -12.3

Query :: Look up cell number change: COc1c2ccc(C(=O)NCCCCc3ccccc3)cc2nn1C
Result :: -13.1

Query :: Look up cell number change: CC(C)CNC(=O)c1cccc2c1-c1ccccc1C2=O
Result :: 24.1

Query :: Look up cell number change: O=C(COc1ccccc1)NCC1CCCO1 (stereo not drawn)
Result :: -0.966

Query :: Look up cell number change: C=CCOc1ccc2ccccc2c1CNn1cn[nH]c1=S
Result :: 10.6

Query :: Look up cell number change: CC(C)(CNC(=O)c1cc([N+](=O)[O-])ccc1N1CCC(Cc2ccccc2)CC1)N1CCOCC1
Result :: 7.52

Query :: Look up cell number change: CCCCOc1ccc(-c2nnc(-c3cc[n+](C)cc3)o2)cc1
Result :: 0.955

Query :: Look up cell number change: O=C(CN1CCN(CC(=O)Nc2ccccn2)CC1)Nc1ccccn1
Result :: 1.87

Query :: Look up cell number change: Cc1cccc(NC(=O)CSc2nnnn2C)n1
Result :: -5.08

Query :: Look up cell number change: Cc1cc(C)cc(NC(=O)CN2CCN(c3ncccn3)CC2)c1
Result :: 8.39
